- System: VDR homodimer (NR concentration 270 nM)
- procedure_details: PBM binding z-score (relative to random genomic background probes); higher = stronger binding; sequences stand for … in GC…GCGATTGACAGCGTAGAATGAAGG
reported_endpoint: PBM binding z-score
Just the number, please.

Sample answers from the record:
>  <construct_sequence>
CCGGCTGGGGCAGAAAGGTTACCATACCATCCGG

>  <PBM binding z-score>
-0.229

$$$$
>  <construct_sequence>
ACTTTTAGTTGACTTAGGGCAACCGATACGACGC

>  <PBM binding z-score>
0.282

$$$$
>  <construct_sequence>
TCTCGGAGGACGCGAAAGGTCAGAGCTCGACATC

>  <PBM binding z-score>
0.581

$$$$
>  <construct_sequence>
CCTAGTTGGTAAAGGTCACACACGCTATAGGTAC

>  <PBM binding z-score>
3.54

$$$$

Data request: Given the sequence GCATATAGGTAATACAAGGTGAAAGACCGATTGT , what is its reported PBM binding z-score?
Data returned: -0.0342

Data request: GET /values?readout=PBM binding z-score&item= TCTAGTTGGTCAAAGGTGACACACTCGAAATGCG
Data returned: 0.44

Data request: Dear colleague, I am looking for the recorded PBM binding z-score of the following sequence: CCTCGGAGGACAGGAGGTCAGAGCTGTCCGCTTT
Data returned: 0.982

Data request: Given the entry CAAACTAGATCAAAGGTCAAAGTCGAGCCAACCA , report its measured PBM binding z-score.
Data returned: 2.87

Data request: Sample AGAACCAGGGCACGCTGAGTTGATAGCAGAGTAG — what was its PBM binding z-score?
Data returned: 0.466

Sourced from the supplement of paper PMC6555819
